The measurements presented in this section are drawn from patent US10597388B2.

- System: ragweed (common ragweed, Ambrosia elatior)
- test-summary: Test A greenhouse herbicide test, pre- and postemergence
- Type: in vivo
- condition-set: Preemergence, 125 g ai/ha; visual injury rating, 0 to 100 scale (0 no effect, 100 complete control), approx. 10 d

>  <molecule>
CC(=O)Oc1c(C)nn(C)c(=O)c1-c1ccc(Cl)c2ccccc12 [Compound 157]

>  <Plant response rating, Ragweed>
60

$$$$
>  <molecule>
COC(=O)Cn1nc(C)c(O)c(-c2cccc3ccccc23)c1=O [Compound 172]

>  <Plant response rating, Ragweed>
0

$$$$
>  <molecule>
Cc1nn(C)c(=O)c(-c2c([N+](=O)[O-])ccc3ccccc23)c1OC(=O)C(C)(C)C [Compound 163]

>  <Plant response rating, Ragweed>
0

$$$$
>  <molecule>
Cc1ccc2sc(C)c(-c3c(OCC#N)c(C)nn(C)c3=O)c2c1 [Compound 160]

>  <Plant response rating, Ragweed>
30

$$$$
>  <molecule>
Cc1nn(C)c(=O)c(-c2c(C)sc3ccccc23)c1OC(=O)N1CCOCC1 [Compound 170]

>  <Plant response rating, Ragweed>
0

$$$$
